target: IRAK4 (Homo sapiens (Human), UniProt Q9NWZ3)
Sequence (Q9NWZ3 whole entry): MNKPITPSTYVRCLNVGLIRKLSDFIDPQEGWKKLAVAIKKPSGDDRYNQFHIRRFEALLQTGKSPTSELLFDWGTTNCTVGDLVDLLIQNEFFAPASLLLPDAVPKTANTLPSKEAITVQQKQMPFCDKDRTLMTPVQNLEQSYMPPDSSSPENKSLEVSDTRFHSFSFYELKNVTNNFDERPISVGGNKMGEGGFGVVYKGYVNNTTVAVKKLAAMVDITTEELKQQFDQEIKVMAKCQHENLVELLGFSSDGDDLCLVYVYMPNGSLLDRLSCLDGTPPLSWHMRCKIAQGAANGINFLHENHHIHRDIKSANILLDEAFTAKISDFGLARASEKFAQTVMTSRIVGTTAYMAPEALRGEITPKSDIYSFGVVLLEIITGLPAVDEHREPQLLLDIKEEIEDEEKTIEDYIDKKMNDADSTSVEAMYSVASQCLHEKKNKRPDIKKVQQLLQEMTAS
IC50 reference

// solved cases for IC50 follow
molecule="CC(C)(O)[C@H](F)CNC(=O)c1cnc(-c2ccc3cc(C#N)cnn23)cc1N[C@H]1CC[C@H](n2cc(C3COC3)nn2)CC1 [Compound 33]" val="1 nM"
molecule="CC(C)(O)[C@H](F)CNC(=O)c1cnc(-c2ccc3cc(C#N)cnn23)cc1N[C@H]1CC[C@H](n2cc(C(F)(F)F)cn2)CC1 [Compound 30]" val="4 nM"

GET IC50 | system: IRAK4 (Homo sapiens (Human), UniProt Q9NWZ3) | item: CC(C)(O)[C@H](F)CNC(=O)c1cnc(-c2ccc3cc(C#N)cnn23)cc1N[C@H]1CC[C@H](c2cncs2)CC1 [Compound 49]
< 1 nM
